Target: farnesyl protein transferase (Homo sapiens, UniProt P49354+P49356)
Assay: FPT IC50 (inhibition of farnesyl protein transferase, in vitro enzyme assay)
value_kind: IC50 (nM)

The following molecules have reported results that may help.
Query block: Give the reported IC50 for this molecule. CC(=O)C(=O)N1CCC([C@H]2c3ncc(Br)cc3CCc3cc(Cl)cc(Br)c32)CC1 [Example 6]
Result block: 46

Query block: Give the reported IC50 for this molecule. O=C(CCC(=O)N1CCC([C@H]2c3ncc(Br)cc3CCc3cc(Cl)cc(Br)c32)CC1)c1ccccc1 [Example 1]
Result block: 21

Query block: Give the reported IC50 for this molecule. O=C(C(=O)N1CCC([C@H]2c3ncc(Br)cc3CCc3cc(Cl)cc(Br)c32)CC1)c1ccccc1 [Example 2]
Result block: 65

Query block: Give the reported IC50 for this molecule. C/C(CCC(=O)N1CCC([C@H]2c3ncc(Br)cc3CCc3cc(Cl)cc(Br)c32)CC1)=N/O [Example 7]
Result block: 11

Query block: Give the reported IC50 for this molecule. C/C(CCC(=O)N1CCC([C@H]2c3ncc(Br)cc3CCc3cc(Cl)cc(Br)c32)CC1)=N\O [Example 8]
Result block: 4.9

Query block: Give the reported IC50 for this molecule. CC(CCC(=O)N1CCC([C@H]2c3ncc(Br)cc3CCc3cc(Cl)cc(Br)c32)CC1)=NNC(N)=O [Example 12]
Result block: 9.7

(1) O=C(CC/C(=N\O)c1ccccc1)N1CCC([C@H]2c3ncc(Br)cc3CCc3cc(Cl)cc(Br)c32)CC1 [Example 10]
(2) CC(=O)CC(=O)CCC(=O)N1CCC([C@H]2c3ncc(Br)cc3CCc3cc(Cl)cc(Br)c32)CC1 [Example 5]
Query block: Pick one: 1 or 2 . Which one has the lower reported IC50? Refer to your chosen item by its label in the answer.
Result block: 1

(I) CC(=O)CCC(=O)N1CCC([C@H]2c3ncc(Br)cc3CCc3cc(Cl)cc(Br)c32)CC1 [Example 3]
(II) CC(CCC(=O)N1CCC([C@H]2c3ncc(Br)cc3CCc3cc(Cl)cc(Br)c32)CC1)=NNC(=O)C(N)=O [Example 13]
(III) CO/N=C(\CCC(=O)N1CCC([C@H]2c3ncc(Br)cc3CCc3cc(Cl)cc(Br)c32)CC1)c1ccccc1 [Example 11]
Query block: Rank by IC50 (largest to smallest). // format: requested-order list of labels
Result block: III, II, I

All figures here come from patent US5925639A.
